Biological target: T1, human CD1b expressed on HEK-293 cells (human, UniProt P29016 18-333; P61769 21-119)
T1 construct: also called HEK - CD1b
Experiment: flow cytometry, HEK-293 cells, 0.1 µg/ml antibody
parameter.measured: Fluorescence Intensity Geomean (normalized to background) (fold over background)

# binder, measurement
data = [
    ("110 (VR12112) (antibody, V domains shown, also called OX110; antibody 110) VH: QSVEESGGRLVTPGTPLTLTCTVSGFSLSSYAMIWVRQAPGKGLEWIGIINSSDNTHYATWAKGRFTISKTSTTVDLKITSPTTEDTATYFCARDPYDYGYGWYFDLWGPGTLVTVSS VL: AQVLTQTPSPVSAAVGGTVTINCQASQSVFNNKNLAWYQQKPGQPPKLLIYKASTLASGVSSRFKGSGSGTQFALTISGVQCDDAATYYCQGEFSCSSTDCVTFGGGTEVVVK", 1),
]
